Dear all, this message contains pIC50 results, target or system Tyrosine-protein kinase TXK (Homo sapiens, UniProt P42681).
For clarity, pIC50 is expressed as the negative log10 of concentration in mol/L.

stdin: GET pIC50 | system: Tyrosine-protein kinase TXK (Homo sapiens, UniProt P42681) | item: COc1cc(C(=O)Nc2cc(C(F)(F)F)ccn2)ccc1-c1nc([C@@H]2CC[C@H]3CCC(=O)N3C2)n2ccnc(N)c12
stdout: 6.99

stdin: Enter measured pIC50, system Tyrosine-protein kinase TXK (Homo sapiens, UniProt P42681), for the compound shown: Nc1nccn2c([C@@H]3CC[C@H]4COC(=O)N4C3)nc(-c3ccc(C(=O)Nc4cc(C(F)(F)F)ccn4)cc3)c12
stdout: 7.34

----------
Assay Comment: Clearance in Wistar Han rat at 2 mg/kg, iv
Assay type: ADME, organism-based
Test Context: in vivo
Measured Parameter: clearance (L/h/kg)
// note: answer is a bare numeric in L/h/kg

stdin: Read the entry CC1(C)OC(=O)N2C[C@H](c3nc(-c4ccc(C(=O)Nc5cc(C(F)(F)F)ccn5)cc4)c4c(N)nccn34)CC[C@H]21 and write its reported clearance.
stdout: 1.56

stdin: Complete the entry with clearance for Nc1nccn2c([C@@H]3CC[C@H]4COC(=O)N4C3)nc(-c3ccc(C(=O)Nc4cc(C(F)(F)F)ccn4)cc3)c12
stdout: 1.02

stdin: Give recorded clearance. Nc1nccn2c([C@@H]3CC[C@H]4CCC(=O)N4C3)nc(-c3ccc(C(=O)Nc4cc(C(F)(F)F)ccn4)cc3OC3CC3)c12
stdout: 2.52

stdin: Tell me its clearance given COc1cc(C(=O)Nc2cc(C(F)(F)F)ccn2)ccc1-c1nc([C@@H]2CC[C@H]3CCC(=O)N3C2)n2ccnc(N)c12 as the entry.
stdout: 3.18

stdin: Output clearance of Nc1nccn2c([C@@H]3CC[C@H]4CCC(=O)N4C3)nc(-c3ccc(C(=O)Nc4cc(C(F)(F)F)ccn4)cc3)c12
stdout: 0.48

----------
Hi there, I'd appreciate the recorded AUC for every entry that follows.
Assay Comment: AUC in Beagle dog at 1 mg/kg, iv
Format: ADME, organism-based, Canis lupus familiaris
Set-up: dose 1 mg/kg
Test Context: in vivo
Provide the reading as a plain figure in µM·h.

stdin: Identify measured AUC associated with Nc1nccn2c([C@@H]3CC[C@H]4CCC(=O)N4C3)nc(-c3ccc(C(=O)Nc4cc(C(F)(F)F)ccn4)cc3)c12
stdout: 2.8

stdin: Name the recorded AUC of the item COc1cc(C(=O)Nc2cc(C(F)(F)F)ccn2)ccc1-c1nc([C@@H]2CC[C@H]3CCC(=O)N3C2)n2ccnc(N)c12 in your answer.
stdout: 1.6

stdin: Supply measured AUC of C[C@H]1CC[C@@H](c2nc(-c3ccc(C(=O)Nc4cc(C(F)(F)F)ccn4)cc3F)c3c(N)nccn23)CN1C(=O)C1CC1 in your reply.
stdout: 20

----------
Measured IC50 (Tyrosine-protein kinase Fyn (Homo sapiens, UniProt P06241))
The figure you give is taken to be in nM; do not add the unit.

stdin: Determine from records and report IC50 for Nc1nccn2c([C@@H]3CC[C@H]4COC(=O)N4C3)nc(-c3ccc(C(=O)Nc4cc(C(F)(F)F)ccn4)cc3)c12
stdout: 18

stdin: Query IC50 for Nc1nccn2c([C@@H]3CC[C@H]4CCC(=O)N4C3)nc(-c3ccc(C(=O)Nc4cc(C(F)(F)F)ccn4)cc3)c12
stdout: 87

stdin: Respond only with IC50 recorded for COc1cc(C(=O)Nc2cc(C(F)(F)F)ccn2)ccc1-c1nc([C@@H]2CC[C@H]3CCC(=O)N3C2)n2ccnc(N)c12
stdout: 1230

stdin: Report measured IC50; entry is CC1(C)OC(=O)N2C[C@H](c3nc(-c4ccc(C(=O)Nc5cc(C(F)(F)F)ccn5)cc4)c4c(N)nccn34)CC[C@H]21
stdout: 212
